Experiment: DUSP6 inhibitors restoring Erk phosphorylation by chemical complementation, primary imaging in DUSP6-transfected HeLa (AID 609)
Conditions: HeLa MKP-3 transfected, phospho-Erk imaging KS statistic; measured here: nuclear pErk red intensity z-score; at 10 µM; stronger effect = higher value; cells stimulated with TPA for 15 min
READOUT KIND: z-score
Give only the figure.

{"COMPOUND": "COc1cccc(C2CC(c3ccccc3Cl)n3nc(N)nc3N2)c1 (stereo unspecified)", "z-score": -0.355}

Q: Which z-score value is on record for CCOC(=O)C(C)Sc1nc(-c2cccs2)ccc1C#N (stereo unspecified) ?
A: 0.563

Q: Which z-score value is on record for Cc1ccccc1N1C(=O)C2ON(c3ccccc3)C(c3cccnc3)C2C1=O (stereo unspecified) ?
A: -1.38

Q: Which z-score value is on record for Cc1ccc2[nH]c3c(c2c1)CN(C(=O)CN1CC(C)OC(C)C1)CC3 (stereo unspecified) ?
A: -0.0941

Q: Which z-score value is on record for `COC(=O)c1ccc(CN(C(C)=O)c2ccccc2)o1` ?
A: -0.676

Q: Which z-score value is on record for `C=CCOn1c(=O)c(-c2ccc(OC)cc2)[n+]([O-])c2ccccc21` ?
A: -0.813

Q: Which z-score value is on record for `CCN(CC)CCOC(=O)c1c(C)n(C)c2ccc(OC)cc12` ?
A: -1.03

Q: Which z-score value is on record for `Cc1cc(C)nc(N(C#N)CN2C(=O)c3ccccc3C2=O)n1` ?
A: -0.916

Q: Which z-score value is on record for `O=C(NCCN1CCCCC1)/C(=N\O)c1ccccc1` ?
A: -0.171

Q: Which z-score value is on record for O=C1OC(N2CCN(C/C=C/c3ccccc3)CC2)c2ccccc21 (stereo unspecified) ?
A: 0.38

Q: Which z-score value is on record for COc1ccc(/C(O)=C2/C(=O)C(=O)N(c3nc(C)c(C)s3)C2c2ccco2)cc1 (stereo unspecified) ?
A: 1.3
